From: patent US20240092897A1

- tested on: T1, Human Siglec-15, His Tag (human Siglec-15 full-length extracellular domain linked with His tag) (human, UniProt Q6ZMC9 20-263)
- T1 construct: Bought from ACROBiosystems; also called Siglec-15 protein; SG5-H52H3
- T1 sequence: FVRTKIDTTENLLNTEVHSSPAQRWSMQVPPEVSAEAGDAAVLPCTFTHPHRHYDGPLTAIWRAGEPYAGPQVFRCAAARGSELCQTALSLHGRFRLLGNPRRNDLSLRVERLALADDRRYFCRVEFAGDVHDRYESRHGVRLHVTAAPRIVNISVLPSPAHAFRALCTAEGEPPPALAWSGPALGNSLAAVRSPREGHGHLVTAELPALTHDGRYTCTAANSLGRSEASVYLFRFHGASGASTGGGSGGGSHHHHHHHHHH
- test details: SPR Biacore, antibody captured by anti-human Fc on CM5, Siglec-15 protein as analyte
result type: koff
Returns: string containing the number followed by the unit.

Entry 124B11F6 chimeric antibody (antibody, human IgG1, V domains shown, also called 124B11F6-mHL) VH: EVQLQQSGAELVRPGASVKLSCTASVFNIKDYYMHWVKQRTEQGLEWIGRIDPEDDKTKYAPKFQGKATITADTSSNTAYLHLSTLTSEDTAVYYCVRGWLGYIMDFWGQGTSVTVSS VL: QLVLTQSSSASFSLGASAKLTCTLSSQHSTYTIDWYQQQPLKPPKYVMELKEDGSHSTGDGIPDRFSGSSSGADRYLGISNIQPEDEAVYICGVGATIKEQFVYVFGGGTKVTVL — recorded koff = 0.000114 s⁻¹
